The reported numbers originate from ChEMBL document CHEMBL1833895.

- System: Candida albicans
- PROTOCOL NOTES: Antifungal activity against Candida albicans ATCC 90028 after 24 hrs by microdilution method
- Assay type: functional
- TEST CONDITIONS: ATCC 90028, 24 h
Exercise: state measured IC80 for each of the molecules provided.

Solved cases below.
> print(dat)
                        input.smiles   result
1           O=C1C=CC(=O)C1=Cc1ccccc1   3.9 µM
2  O=C1C=CC(=O)C1=C/C=C/c1ccc(Cl)cc1  62.5 µM
3        O=C1C=CC(=O)C1=Cc1ccc(F)cc1  15.6 µM
4            O=C1C=CC(=O)C1=Cc1cccs1  15.6 µM

Q: For the molecule `Cc1ccc(C=C2C(=O)C=CC2=O)cc1` , what IC80 is on record?
Result: 3.9 µM
